Could you please report measured Activity for the items listed next?
Test system: CHO
testProtocol: Sensitization of colchicine treated parental (PAR)CHO cells, measured at concentration 0.1(mg/L)
Type: functional, Cricetulus griseus
Format: numeric value only, no unit, no commentary.

Record CC[C@@H](C)[C@H]1C(=O)NCC(=O)N(C)[C@@H](C(C)C)C(=O)N[C@@H](Cc2ccc(OC)cc2)C(=O)O[C@H](C)C(=O)N2CCCC[C@H]2C(=O)N(C)[C@@H](C(C)C)C(=O)N[C@@H](C(C)C)C(=O)N(C)[C@H](CC(=O)N[C@H](C(=O)OC(C)(C)C)C(C)C)C(=O)N(C)[C@@H]([C@@H](C)CC)C(=O)N1C , field Activity: 6

Sure, the documented Activity for CC[C@H](C)[C@H]1C(=O)NCC(=O)N(C)[C@@H](C(C)C)C(=O)N[C@@H](Cc2ccc(OC(C)(C)C)cc2)C(=O)O[C@H](C)C(=O)N2CCCC[C@H]2C(=O)N(C)[C@@H](C(C)C)C(=O)N[C@@H](C(C)C)C(=O)N(C)[C@@H](CC(=O)OC(C)(C)C)C(=O)N(C)[C@@H]([C@@H](C)CC)C(=O)N1C is 6.7

Hey, just so you know, these numbers are from ChEMBL document CHEMBL1127553.
